# Measured Target: SP1 (UniProt P08047 1-785)
# Sequence (P08047 whole entry): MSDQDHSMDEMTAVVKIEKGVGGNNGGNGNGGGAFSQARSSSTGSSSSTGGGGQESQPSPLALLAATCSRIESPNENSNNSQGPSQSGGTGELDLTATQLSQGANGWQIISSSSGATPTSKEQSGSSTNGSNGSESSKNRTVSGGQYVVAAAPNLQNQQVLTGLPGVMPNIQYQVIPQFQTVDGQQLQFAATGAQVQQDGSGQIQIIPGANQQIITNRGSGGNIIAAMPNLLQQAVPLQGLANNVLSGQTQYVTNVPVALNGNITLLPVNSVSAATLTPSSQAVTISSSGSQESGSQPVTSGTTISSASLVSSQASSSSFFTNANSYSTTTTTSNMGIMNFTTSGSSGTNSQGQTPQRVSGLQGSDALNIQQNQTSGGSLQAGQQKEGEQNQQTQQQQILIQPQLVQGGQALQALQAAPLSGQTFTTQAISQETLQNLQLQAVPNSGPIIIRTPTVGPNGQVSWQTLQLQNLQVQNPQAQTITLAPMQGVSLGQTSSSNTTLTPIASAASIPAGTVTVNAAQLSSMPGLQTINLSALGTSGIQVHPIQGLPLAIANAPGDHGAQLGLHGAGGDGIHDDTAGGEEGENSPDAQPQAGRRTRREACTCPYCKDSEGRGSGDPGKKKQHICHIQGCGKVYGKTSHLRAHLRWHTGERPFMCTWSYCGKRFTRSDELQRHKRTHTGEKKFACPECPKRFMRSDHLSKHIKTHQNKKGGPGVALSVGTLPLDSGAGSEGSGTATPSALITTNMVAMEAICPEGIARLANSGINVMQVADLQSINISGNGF
# Protocol Summary: BLI; annealed in 100 mM KCl; local 1:1 fit at 457 nM SP1; not truly 1:1; EMSA: 10 mM HEPES-NaOH pH 7.3, 50 mM KCl, 5 mM MgCl2, 0.5 mM DTT, 5% glycerol, 0.5 mg/mL BSA, 1 h, gel at 4 C; BLI: PBS, room temperature; oligos annealed in 10 mM Tris-HCl pH 7.5 +/- 100 mM KCl
# Test Conditions: protein: commercial; label: 5' biotin (BLI); G4, parallel, intra- and intermolecular
Result Type: pKd
In textbook form, pKd equals minus log to base ten of the concentration in mol/L.

Exam item: Which pKd is listed for GGGGGCCGGGGGCGGGGAGGCGGG (structured_DNA) [Bcl3 WT 24-nt, annealed with KCl (G4)] ?
Marked response: 8.63
